# TGT: CDK1/Cyclin B1 (Homo sapiens)
# Sequence (P06493 whole entry): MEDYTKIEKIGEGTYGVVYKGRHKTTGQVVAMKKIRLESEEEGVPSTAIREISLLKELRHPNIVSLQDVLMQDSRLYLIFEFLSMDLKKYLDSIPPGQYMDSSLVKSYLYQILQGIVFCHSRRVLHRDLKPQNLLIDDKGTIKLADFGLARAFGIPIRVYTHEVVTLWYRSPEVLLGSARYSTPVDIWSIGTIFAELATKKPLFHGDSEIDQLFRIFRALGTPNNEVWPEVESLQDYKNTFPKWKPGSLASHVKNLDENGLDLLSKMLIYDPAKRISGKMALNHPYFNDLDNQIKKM
# Sequence (P14635 whole entry partner): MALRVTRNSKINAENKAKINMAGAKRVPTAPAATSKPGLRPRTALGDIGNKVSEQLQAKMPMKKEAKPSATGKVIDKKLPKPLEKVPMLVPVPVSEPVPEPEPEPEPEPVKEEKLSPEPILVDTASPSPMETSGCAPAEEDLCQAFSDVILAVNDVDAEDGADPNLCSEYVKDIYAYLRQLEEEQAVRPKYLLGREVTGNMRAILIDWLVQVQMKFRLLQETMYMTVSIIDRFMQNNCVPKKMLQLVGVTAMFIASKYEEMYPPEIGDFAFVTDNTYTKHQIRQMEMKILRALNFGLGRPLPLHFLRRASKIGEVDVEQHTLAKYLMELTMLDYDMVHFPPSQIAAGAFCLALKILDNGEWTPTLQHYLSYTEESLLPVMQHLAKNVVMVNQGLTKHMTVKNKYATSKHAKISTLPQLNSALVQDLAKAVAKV
# EXPERIMENT: CDK1/Cyclin B1 TR-FRET biochemical assay, 1 mM ATP
# SETUP_CONDITIONS: 0.15 μM Rb (Ser780)-biotin substrate, 90 min reaction, Table 2
pIC50: −log10 of the molar value.
ENDPOINT: pIC50

Below are worked cases with known answers.
[[record]]
compound = "CC(C)(C)c1cnc(C2CCC(c3cc(Nc4cc5c(cc4F)S(=O)(=O)NC5)n[nH]3)C2)o1 (single isomer, unassigned) [Example 17d]"
recorded_result = "< 5.00"

[[record]]
compound = "O=S1(=O)NCc2cc(Nc3cc(C4CCC(c5ncc(C6CC6)o5)C4)[nH]n3)c(F)cc21 (stereo not drawn) [Example 20]"
recorded_result = "< 5.00"


Now take the following compound into account.
Could you tell me which pIC50 is on file for Cc1nc(C2CCC(c3cc(Nc4ccc(S(N)(=O)=O)cc4F)n[nH]3)C2)oc1C(C)(C)C (stereo not drawn) [Example 8] ? < 5.00
